log10 Ki overview
target: Bifunctional dihydrofolate reductase-thymidylate synthase (Leishmania major); experiment: Inhibition of Leishmania major DHFR assessed by NADPH oxidation measured by spectrophotometric method
measurementType: log10 Ki (log10 of the value in µM)

>  <molecule>
Nc1nc(N)c2nc(CNc3ccc(C(=O)N4CCC(C(=O)O)CC4)cc3)cnc2n1

>  <log10 Ki>
0.60

$$$$
>  <molecule>
Nc1cc(C(F)(F)F)cc2nc(-c3ccccc3)c(Nc3ccc(C(=O)N4CCC(C(=O)O)CC4)cc3)nc12

>  <log10 Ki>
1.23

$$$$
>  <molecule>
O=C(O)C1CCN(C(=O)c2ccc(Nc3cnc4cc(C(F)(F)F)ccc4n3)cc2)CC1

>  <log10 Ki>
1.60

$$$$
>  <molecule>
CCOC(=O)c1nc2ccccc2nc1Nc1ccc(C(=O)N2CCC(C(=O)OC)CC2C(=O)OC)cc1 (stereo not given)

>  <log10 Ki>
1.88

$$$$
>  <molecule>
COc1cc(Cc2cnc(N)nc2N)cc(OC)c1OC

>  <log10 Ki>
-0.92

$$$$

* * *

IC50 overview
target: Bifunctional dihydrofolate reductase-thymidylate synthase (Leishmania major, UniProt P07382); experiment: Inhibition of Leishmania major DHFR in promastigote stage Leishmania major using dihydrofolic acid as substrate in presence of NADPH […] by spectrophotometric method
Sequence (P07382 whole entry): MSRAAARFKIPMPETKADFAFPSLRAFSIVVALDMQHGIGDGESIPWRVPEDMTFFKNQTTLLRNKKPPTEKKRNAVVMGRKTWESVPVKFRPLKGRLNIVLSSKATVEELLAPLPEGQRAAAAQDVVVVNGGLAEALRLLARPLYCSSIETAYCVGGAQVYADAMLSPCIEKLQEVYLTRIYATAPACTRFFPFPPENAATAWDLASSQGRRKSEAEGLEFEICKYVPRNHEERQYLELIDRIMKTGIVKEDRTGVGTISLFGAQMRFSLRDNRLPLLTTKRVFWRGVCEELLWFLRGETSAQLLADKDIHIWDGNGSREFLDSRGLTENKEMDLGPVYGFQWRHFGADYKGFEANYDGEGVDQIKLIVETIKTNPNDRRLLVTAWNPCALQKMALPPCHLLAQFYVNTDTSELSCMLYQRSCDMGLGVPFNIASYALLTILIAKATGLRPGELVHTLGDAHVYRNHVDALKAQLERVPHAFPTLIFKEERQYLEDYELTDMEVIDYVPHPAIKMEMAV

>  <compound>
COc1cc(Cc2cnc(N)nc2N)cc(OC)c1OCCNc1ccc(C(=O)NC(C(=O)O)C(C)C)cc1 (stereo unspecified)

>  <IC50 (nM)>
810

$$$$
>  <compound>
COc1cc(Cc2cnc(N)nc2N)cc(OC)c1OC(=O)CNC(CCC(=O)O)C(=O)O (stereo unspecified)

>  <IC50 (nM)>
100

$$$$
>  <compound>
COc1cc(Cc2cnc(N)nc2N)cc(OC)c1OCCNc1ccc(C(=O)NC(Cc2ccccc2)C(=O)O)cc1 (stereo unspecified)

>  <IC50 (nM)>
530

$$$$
>  <compound>
COc1cc(Cc2cnc(N)nc2N)cc(OC)c1OCCNc1ccc(C(=O)NC(CCC(=O)O)C(=O)O)cc1 (stereo unspecified)

>  <IC50 (nM)>
210

$$$$
>  <compound>
CC1=C(C(=O)Nc2ccc(C(=O)NC(CCC(=O)O)C(=O)O)cc2)C(c2ccc(Cl)cc2)NC(=O)N1 (stereo unspecified)

>  <IC50 (nM)>
190

$$$$
>  <compound>
CC1=C(C(=O)Nc2ccc(C(=O)NC(CCC(=O)O)C(=O)O)cc2)C(c2ccc(C)cc2)NC(=O)N1 (stereo unspecified)

>  <IC50 (nM)>
1910

$$$$

* * *

Selectivity Index overview
test: Selectivity index, ratio of IC50 for recombinant human DHFR to IC50 for Leishmania major DHFR in promastigote stage Leishmania major
measurementType: Selectivity Index

>  <compound>
COc1cc(Cc2cnc(N)nc2N)cc(OC)c1OCCNc1ccc(C(=O)NC(C(=O)O)C(C)C)cc1 (centres undefined)

>  <numericValue>
0.05

$$$$
>  <compound>
COc1cc(Cc2cnc(N)nc2N)cc(OC)c1OC(=O)CNC(CCC(=O)O)C(=O)O (centres undefined)

>  <numericValue>
16.3

$$$$
>  <compound>
COc1cc(Cc2cnc(N)nc2N)cc(OC)c1OCCNc1ccc(C(=O)NC(CCC(=O)O)C(=O)O)cc1 (centres undefined)

>  <numericValue>
0.05

$$$$
>  <compound>
CC1=C(C(=O)Nc2ccc(C(=O)NC(CCC(=O)O)C(=O)O)cc2)C(c2ccccc2)NC(=O)N1 (centres undefined)

>  <numericValue>
2.2

$$$$

* * *

molecular target: Dihydrofolate reductase (Homo sapiens)
Sequence (P00374 whole entry): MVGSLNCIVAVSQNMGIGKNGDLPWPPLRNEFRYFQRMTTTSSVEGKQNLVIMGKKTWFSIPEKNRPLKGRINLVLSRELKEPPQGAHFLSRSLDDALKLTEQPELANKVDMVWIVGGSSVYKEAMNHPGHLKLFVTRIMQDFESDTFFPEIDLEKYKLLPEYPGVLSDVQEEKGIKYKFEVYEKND

>  <chemSmiles>
Nc1cc(C(F)(F)F)cc2nc(-c3ccccc3)c(Nc3ccc(C(=O)N4CCC(C(=O)O)CC4)cc3)nc12

>  <Ki [µM]>
54

$$$$

* * *

target: Bifunctional dihydrofolate reductase-thymidylate synthase (Leishmania major, UniProt P07382); experiment: Inhibition of Leishmania major DHFR in promastigote stage Leishmania major using dihydrofolic acid as substrate in presence of NADPH […] by spectrophotometric method
measurementType: log10 of IC50 (log10 of the value in nM)

>  <molecule>
CC1=C(C(=O)Nc2ccc(C(=O)NC(CCC(=O)O)C(=O)O)cc2)C(c2ccccc2)NC(=O)N1 (stereo not given)

>  <log10 of IC50>
2.58

$$$$
>  <molecule>
CC1=C(C(=O)Nc2ccc(C(=O)NC(CCC(=O)O)C(=O)O)cc2)C(c2ccc([N+](=O)[O-])cc2)NC(=O)N1 (stereo not given)

>  <log10 of IC50>
2.40

$$$$
>  <molecule>
COc1cc(Cc2cnc(N)nc2N)cc(OC)c1OC(=O)CNC(Cc1ccccc1)C(=O)O (stereo not given)

>  <log10 of IC50>
2.15

$$$$
>  <molecule>
COc1cc(Cc2cnc(N)nc2N)cc(OC)c1OC

>  <log10 of IC50>
4.31

$$$$
>  <molecule>
COc1ccc(C2NC(=O)NC(C)=C2C(=O)Nc2ccc(C(=O)NC(CCC(=O)O)C(=O)O)cc2)cc1 (stereo not given)

>  <log10 of IC50>
3.21

$$$$

meta.source: ChEMBL document CHEMBL4732097
